Reference for the values: patent US6767991B1

Each item that follows carries a reported IC50.
biological target: HCV NS3 protease type 1b/NS4A cofactor peptide (Hepatitis C virus genotype 1b); construct: recombinant HCV NS3 protease (amino acid 1027 to 1206) was cloned in the pET11d bacterial expression vector; made in house; host or cells: E. coli BL21(DE3)pLysS; test: Recombinant HCV NS3 protease/NS4A cofactor peptide radiometric assay; type: biochemical, HCV genotype 1b; settings: Table 5; first line of the cell; NS3 protease/NS4A cofactor peptide radiometric assay (Example 38); read-out: IC50
Sequence (P26663 1027-1206, other chains not shown): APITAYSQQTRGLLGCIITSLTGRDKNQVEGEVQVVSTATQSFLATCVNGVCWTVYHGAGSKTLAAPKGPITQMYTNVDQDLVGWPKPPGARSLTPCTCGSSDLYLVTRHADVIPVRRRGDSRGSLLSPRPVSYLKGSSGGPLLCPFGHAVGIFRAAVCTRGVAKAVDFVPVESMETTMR
Where a SMILES comes first, the peptide text is derived from it. [ ]: non-standard residue; d: D form. The star is where a group is joined. Acca(2-Et,1R,2R) = CC[C@@H]1C[C@]1(N)C(=O)O; CH2(1-naphthyl) = c1ccc2c(C*)cccc2c1; Hyp = O=C(O)[C@@H]1C[C@@H](O)CN1; Chg = N[C@H](C(=O)O)C1CCCCC1; Bn = c1ccc(C*)cc1
Hi! Could you send only the number? It should be in µM, unit omitted.

Molecule: CC[C@@H]1C[C@]1(NC(=O)[C@@H]1C[C@@H](OCc2cccc3ccccc23)CN1C(=O)[C@@H](NC(=O)[C@@H](NC(=O)[C@H](NC(=O)[C@H](CC(=O)O)NC(C)=O)C(C)C)C1CCCCC1)C(C)C)C(=O)O [compound 521] (Ac-D[dV][Chg]V[Hyp](CH2(1-naphthyl))[Acca(2-Et,1R,2R)]-OH)
IC50 (µM): 0.024

Q) Returns the measured IC50 for the input molecule. Input: CC[C@@H]1C[C@]1(NC(=O)[C@@H]1C[C@@H](OCc2cccc3ccccc23)CN1C(=O)[C@@H](NC(=O)[C@@H](NC(=O)[C@@H](CCC(=O)O)NC(=O)[C@H](CC(=O)O)NC(C)=O)C1CCCCC1)C(C)C)C(=O)O [compound 518] (Ac-D[dE][Chg]V[Hyp](CH2(1-naphthyl))[Acca(2-Et,1R,2R)]-OH)
A) 0.011

Q) If you can, please state the reported IC50 value of CC[C@@H]1C[C@]1(NC(=O)[C@@H]1C[C@@H](OCc2cccc3ccccc23)CN1C(=O)[C@@H](NC(=O)[C@@H](NC(=O)[C@@H](CCC(=O)O)NC(=O)[C@H](CC(=O)O)NC(C)=O)C1CCCCC1)C1CCCCC1)C(=O)O [compound 509] (Ac-D[dE][Chg][Chg][Hyp](CH2(1-naphthyl))[Acca(2-Et,1R,2R)]-OH) .
A) 0.015

Q) IC50 for CC[C@@H]1C[C@]1(NC(=O)[C@@H]1C[C@@H](OCc2ccccc2)CN1C(=O)[C@@H](NC(=O)[C@@H](NC(=O)[C@@H](CCC(=O)O)NC(=O)[C@H](CC(=O)O)NC(C)=O)[C@@H](C)CC)C(C)C)C(=O)O [compound 517] (Ac-D[dE]IV[Hyp](Bn)[Acca(2-Et,1R,2R)]-OH) ?
A) 0.075
